System: RIVA
Assay: growth inhibition by drug plus 177Lu-lilotomab satetraxetan (1 - RLU/untreated control) (fraction); higher = stronger inhibition
Settings: 100 nM; time (day): 4; 177Lu-lilotomab satetraxetan 0.5 ug/ml
Counter-ions that a name gives are not always drawn.
Entry flag: rule met if growth inhibition by drug plus 177Lu-lilotomab satetraxetan reaches 0.5; rule not met if it does not.

[
  {
    "COMPOUND": "C#Cc1cccc(Nc2ncnc3cc(OCCOC)c(OCCOC)cc23)c1 [Erlotinib HCl]",
    "CLASS NAME": "rule met"
  },
  {
    "COMPOUND": "CCN[C@H]1C[C@H](C)S(=O)(=O)c2sc(S(N)(=O)=O)cc21 [Dorzolamide HCL]",
    "CLASS NAME": "rule not met"
  },
  {
    "COMPOUND": "CCOc1ccc(Nc2nc(-c3c(C)nc4ccccn34)cs2)cc1",
    "CLASS NAME": "rule met"
  },
  {
    "COMPOUND": "CCc1cc(Nc2nccc(-c3c(-c4ccc(OC)c(C(=O)Nc5c(F)cccc5F)c4)nc4ccccn34)n2)c(OC)cc1N1CCC(N2CCN(S(C)(=O)=O)CC2)CC1",
    "CLASS NAME": "rule not met"
  },
  {
    "COMPOUND": "NC(=O)Nc1sc(-c2ccc(F)cc2)cc1C(N)=O",
    "CLASS NAME": "rule not met"
  },
  {
    "COMPOUND": "COC(=O)Nc1ccc(-c2nc(N3CCOCC3)c3cnn(C4CCN(C(=O)OC)CC4)c3n2)cc1",
    "CLASS NAME": "rule met"
  },
  {
    "COMPOUND": "COc1c(C)c2c(c(O)c1C/C=C(\\C)CCC(=O)OCCN1CCOCC1)C(=O)OC2 [Mycophenolate mofetil (CellCept)]",
    "CLASS NAME": "rule met"
  },
  {
    "COMPOUND": "Cc1nc(-c2ccc(OCC(C)C)c(C#N)c2)sc1C(=O)O",
    "CLASS NAME": "rule not met"
  },
  {
    "COMPOUND": "Cc1cc(O)c2c(c1)C(=O)c1cccc(O)c1C2=O",
    "CLASS NAME": "rule met"
  },
  {
    "COMPOUND": "N#Cc1ccc(C(c2ccc(C#N)cc2)n2cncn2)cc1",
    "CLASS NAME": "rule not met"
  },
  {
    "COMPOUND": "COc1nc(C)cnc1NS(=O)(=O)c1cccnc1-c1ccc(-c2nnco2)cc1 [Zibotentan (ZD4054)]",
    "CLASS NAME": "rule not met"
  },
  {
    "COMPOUND": "Cc1cccc(-c2nn3c(c2-c2ccnc4ccc(C(N)=O)cc24)CCC3)n1",
    "CLASS NAME": "rule not met"
  },
  {
    "COMPOUND": "CCc1cc(-c2n[nH]c(C)c2-c2ccc3c(c2)OCCO3)c(O)cc1O",
    "CLASS NAME": "rule not met"
  },
  {
    "COMPOUND": "O=C(Cc1ccc(-c2ccc(OCCN3CCOCC3)cc2)cn1)NCc1ccccc1",
    "CLASS NAME": "rule met"
  },
  {
    "COMPOUND": "COc1cc2ncnc(Nc3ccc(F)c(Cl)c3)c2cc1NC(=O)/C=C/CN1CCCCC1",
    "CLASS NAME": "rule not met"
  },
  {
    "COMPOUND": "O=c1oc2c(O)c(O)cc3c(=O)oc4c(O)c(O)cc1c4c23",
    "CLASS NAME": "rule not met"
  },
  {
    "COMPOUND": "CCCCCCCCc1ccc(CCC(N)(CO)CO)cc1",
    "CLASS NAME": "rule not met"
  },
  {
    "COMPOUND": "CNC(=O)[C@@H](NC(=O)[C@H](CC(C)C)[C@H](O)C(=O)NO)C(C)(C)C",
    "CLASS NAME": "rule not met"
  },
  {
    "COMPOUND": "OCCn1cc(-c2ccc3c(c2)CC/C3=N\\O)c(-c2ccncc2)n1",
    "CLASS NAME": "rule met"
  },
  {
    "COMPOUND": "COc1cc2nccc(Oc3ccc(NC(=O)C4(C(=O)Nc5ccc(F)cc5)CC4)cc3)c2cc1OC [XL-184 free base (Cabozantinib)]",
    "CLASS NAME": "rule met"
  },
  {
    "COMPOUND": "Nc1cccc2c1C(=O)N(C1CCC(=O)NC1=O)C2=O (stereo unspecified) [Pomalidomide]",
    "CLASS NAME": "rule not met"
  },
  {
    "COMPOUND": "CN(C)CCOc1ccc(/C(=C(/CCCl)c2ccccc2)c2ccccc2)cc1 [Toremifene Citrate (Fareston, Acapodene)]",
    "CLASS NAME": "rule met"
  },
  {
    "COMPOUND": "O=C(NOC[C@H](O)CO)c1ccc(F)c(F)c1Nc1ccc(I)cc1F",
    "CLASS NAME": "rule met"
  },
  {
    "COMPOUND": "Nc1[nH]nc2nnc(-c3c(-c4ccccc4)nn4ccccc34)cc12",
    "CLASS NAME": "rule not met"
  },
  {
    "COMPOUND": "CC[C@H]1OC(=O)[C@H](C)[C@@H](O[C@H]2C[C@@](C)(OC)[C@@H](O)[C@H](C)O2)[C@H](C)[C@@H](O[C@@H]2O[C@H](C)C[C@H](N(C)C)[C@H]2O)[C@](C)(O)C[C@@H](C)CN(C)[C@H](C)[C@@H](O)[C@]1(C)O [Azithromycin (Zithromax)]",
    "CLASS NAME": "rule met"
  },
  {
    "COMPOUND": "COc1ccc2c(c1)CCC1C2CCC2(C)C(NCCCCCCN3C(=O)C=CC3=O)CCC12 (stereo unspecified)",
    "CLASS NAME": "rule met"
  },
  {
    "COMPOUND": "CC(C)c1onc(-c2c(Cl)cccc2Cl)c1COc1ccc(/C=C/c2cccc(C(=O)O)c2)c(Cl)c1",
    "CLASS NAME": "rule met"
  }
]
